# method-summary: A CellTox Green Cytotoxicity Assay to monitor cytotoxicity in HEK293 cells - 8 hour (AID 1224884); further: nearly all actives have a fitted effect of over 35% in size
# settings: CellTox Green fluorescence; series mostly up to 76.8 µM
Records with an inconclusive call do not appear. Calls of active or inactive are those of the source. The call rests on the fitted dose curve; in most records, active means well fitted activation curve with a large enough effect in the repeat runs; inconclusive means weak or mixed curves; inactive means flat fitted curve, though single readings scatter.
Hi there, use one of these labels in your reply, thanks! True = active, False = inactive

Use these answered entries as a reference point.
compound | class
CO[C@@H]1[C@@H](OC)[C@H](C)[C@@](O)(CC(=O)O)O[C@H]1[C@H](C)[C@H]1O[C@@]2(CC[C@@](C)([C@H]3CC[C@@](C)([C@@H]4O[C@@H]([C@H]5O[C@](C)(O)[C@H](C)C[C@@H]5C)C[C@@H]4OC4C[C@H](OC)[C@@H](OC)[C@H](C)O4)O3)O2)C[C@H](O)[C@H]1C (stereo partly drawn) | False
CC1CCC(C(C)CS)CC1S (stereo not drawn) | True
CCCCCCC(O)CCOC(C)=O (stereo not drawn) | False
C/C(C=O)=C\c1ccccc1 | False
CC(=O)c1ccc[nH]1 | False
O=C1[C@@H]2[C@H]3CC[C@H](C3)[C@@H]2C(=O)N1CCCCN1CCN(c2ncccn2)CC1 | False

State the result this test recorded for CCCCCCOC(=O)CCCCC .
False

State the result this test recorded for O=CNNC=O .
False

State the result this test recorded for O=C(O)CCCc1c[nH]c2ccccc12 .
False

* * *

# method-summary: qHTS assay to identify small molecule antagonists of the vitamin D receptor (VDR) signaling pathway - cell viability counter screen (AID 743225); further: nearly all actives have a fitted effect of over 50% in size
# settings: VDR-bla HEK293T viability, CellTiter-Glo luminescence, 16 h; series mostly up to 61 µM
Results filed as inconclusive are left out. Active and inactive are the calls of the source. The call rests on the fitted dose curve; in most records, active means well fitted cell-killing curve with a large enough effect in the repeat runs; inconclusive means weak or mixed curves, or effect the other way; inactive means no such curve, though single readings can be large or run the other way.
Hi there, use one of these labels in your reply, thanks! T for active, F for inactive

State the result this test recorded for Cc1ccc(N(CCO)CCO)cc1 .
F

State the result this test recorded for O=C(NS(=O)(=O)/C=C/c1ccccc1)c1ccc(F)cc1Cl .
F

State the result this test recorded for CCCCCCCCCCCSCC(=O)O .
T

State the result this test recorded for O=C(C(=O)c1ccco1)c1ccco1 .
F

* * *

# method-summary: qHTS assay for small molecule agonists of the p53 signaling pathway - cell viability (AID 651633); further: nearly all actives have a fitted effect of over 30% in size
# settings: p53RE-bla HCT-116 viability, ATP luminescence, 16 h; series mostly up to 83.3 µM
Inconclusive results are not listed. Calls of active or inactive are those of the source. Calls follow the shape of the full dose curve.
Hi there, use one of these labels in your reply, thanks! active, inactive

Use these answered entries as a reference point.
compound | class
Nc1c(Cl)cc(Cl)cc1[N+](=O)[O-] | inactive
O=C(/C=C/c1ccc([N+](=O)[O-])cc1)c1ccccc1 | active
CCCCCCCCCCCC(=O)OCC(O)CO (stereo not drawn) | inactive
O=C1OC(=O)c2c(Br)c(Br)c(Br)c(Br)c21 | inactive
O=C(O)CNC(=O)c1ccccc1I | inactive
O=C(NC(Cc1cc(=O)[nH]c2ccccc12)C(=O)O)c1ccc(Cl)cc1 (stereo not drawn) | inactive

State the result this test recorded for Cc1cccc2sc(N)nc12 .
inactive

State the result this test recorded for O=C(O)CN1C(=O)c2cccc3cccc(c23)C1=O .
inactive

* * *

# method-summary: qHTS assay for identifying genotoxic compounds that show differential cytotoxicity against isogenic chicken DT40 cell lines with known DNA damage response pathways - wild type cell line (AID 743012); further: nearly all actives have a fitted effect of over 60% in size
# settings: DT40 wild type chicken cells viability, CellTiter-Glo, 40 h; series mostly up to 68.4 µM
Inconclusive results are not listed. Calls of active or inactive are those of the source. The call rests on the fitted dose curve; in most records, active means well fitted cell-killing curve with a large enough effect in the repeat runs; inconclusive means weak or mixed curves, or effect the other way; inactive means no such curve, though single readings can be large or run the other way.
Hi there, use one of these labels in your reply, thanks! active, inactive

Use these answered entries as a reference point.
molecule | class
Nc1ccc(F)cc1 | inactive
CC(C)(O)CCc1ccccc1 | inactive

State the result this test recorded for CC(C)(C)C1(CCc2ccc(Cl)cc2)CO1 (stereo not drawn) .
inactive

State the result this test recorded for O=CNNC=O .
inactive

State the result this test recorded for C=CC(=O)O .
inactive

State the result this test recorded for CCCCCCCCCCCCCOC(=O)CCSCCC(=O)OCCCCCCCCCCCCC .
inactive

State the result this test recorded for CN=C(N)NC(=O)Nc1c(C)cccc1C .
inactive

State the result this test recorded for CN(C)CC/C=C1\c2ccccc2Sc2ccc(Cl)cc21 .
active

* * *

# method-summary: qHTS RealTime-Glo MT Cell Viability Assay in HepG2 cells - 16 hour (AID 1224885); further: on the % scale 0 is the no-effect control and ±100 the full control effect; nearly all actives have a fitted effect of over 50% in size
# settings: RealTime-Glo luminescence; series mostly up to 76.8 µM
Records with an inconclusive call do not appear. Active and inactive are the calls of the source. Calls come from the whole dose curve; as a rule, active = well fitted cell-killing curve with a large enough effect in the repeat runs; inconclusive = weak or mixed curves; inactive = flat fitted curve, though single readings scatter.
outcome-measure: activity change, negative = cytotoxic

These recorded examples may help you get a feel for the data.
compound | activity change, negative = cytotoxic
O=C(NC(Cc1cc(=O)[nH]c2ccccc12)C(=O)O)c1ccc(Cl)cc1 (centres undefined) | inactive
CC(=O)N[C@@H](Cc1ccc(O)cc1)C(=O)O | inactive
CCCCCCCC(=O)Oc1c(Br)cc(C#N)cc1Br | inactive
CCCCCCCCCCCCCCN(C)C | -0.238% [at 15.8 µM] (inactive)
CCOC(=O)c1ccc(NC(=O)CN2CCCCC2)cc1 | inactive

# input compound: O=C(C(=O)c1ccco1)c1ccco1 ; wanted: its activity change, negative = cytotoxic
inactive

# input compound: CC(C)(C)NCC(O)COc1cccc2c1C[C@H](O)[C@H](O)C2 (some centres undefined) ; wanted: its activity change, negative = cytotoxic
inactive

# input compound: c1ccc2sc(SSc3nc4ccccc4s3)nc2c1 ; wanted: its activity change, negative = cytotoxic
5.08% [at 15.8 µM] (inactive)

# input compound: O=C1c2ccccc2C(=O)c2c(O)ccc(O)c21 ; wanted: its activity change, negative = cytotoxic
inactive

* * *

# method-summary: qHTS assay to identify small molecule antagonists of the retinoid acid receptor (RAR) signaling pathway - cell viability counter screen (AID 1159551); further: on the % scale 0 is the no-effect control and ±100 the full control effect; nearly all actives have a fitted effect of over 35% in size
# settings: C3RL4 cells viability, ATP luminescence (CellTiter-Glo), 6 h; series mostly up to 92.4 µM
Inconclusive results are not listed. Active and inactive are the calls of the source. Calls come from the whole dose curve; as a rule, active = well fitted cell-killing curve with a large enough effect in the repeat runs; inconclusive = weak or mixed curves, or effect the other way; inactive = flat fitted curve, though single readings scatter.
outcome-measure: activity change, negative = cytotoxicity

These recorded examples may help you get a feel for the data.
molecule | activity change, negative = cytotoxicity
CC(C)(C)C1(CCc2ccc(Cl)cc2)CO1 (stereo not drawn) | inactive
CC(=O)OC(C)C[N+](C)(C)C (stereo not drawn) | inactive
C=CC(=O)O | inactive
CS(=O)(=O)c1ccc([C@@H](C[C@H]2CCC(=O)C2)C(=O)Nc2cnccn2)cc1Cl | inactive
CC(C)N(C)C | inactive
CCCCCCCC/C=C/C(=O)O | inactive
CCCCCCCC(=O)Oc1c(Br)cc(C#N)cc1Br | inactive

# input molecule: COC(=O)CC(C(C)=O)C(=O)OC (stereo not drawn) ; wanted: its activity change, negative = cytotoxicity
inactive

* * *

# method-summary: A CellTox Green Cytotoxicity Assay to monitor cytotoxicity in HepG2 cells - 24 hour (AID 1224878); further: nearly all actives have a fitted effect of over 45% in size; on Cytotoxicity: on the % scale 0 is the no-effect control and ±100 the full control effect
# settings: CellTox Green fluorescence; series mostly up to 76.8 µM
Inconclusive results are not listed. Calls of active or inactive are those of the source. Calls follow the shape of the dose curve; as a rule, active = well fitted activation curve with a large enough effect in the repeat runs; inconclusive = weak or mixed curves; inactive = flat fitted curve, though single readings scatter.
Hi there, use one of these labels in your reply, thanks! active, inactive

compound | class
Oc1cccc2[nH]ccc12 | inactive

State the result this test recorded for Cc1ccc(N(CC2=NCCN2)c2cccc(O)c2)cc1 .
inactive

State the result this test recorded for O=C1c2ccccc2C(=O)c2c(O)ccc(O)c21 .
active

State the result this test recorded for CCCCCCCCCCCCCC(=O)OCC(O)CO (stereo not given) .
inactive

State the result this test recorded for CCOc1ncc(F)c(=O)[nH]1 .
inactive

State the result this test recorded for CCN(CC)CCNC(=O)c1cc(Cl)c(N)cc1OC .
inactive

State the result this test recorded for O=C(O)CCC(=O)OC[C@@H](NC(=O)C(Cl)Cl)[C@H](O)c1ccc([N+](=O)[O-])cc1 .
active

State the result this test recorded for CC(=O)c1ccc[nH]1 .
inactive

* * *

# method-summary: qHTS RealTime-Glo MT Cell Viability Assay in HEK293 cells - 32 hour (AID 1224868); further: nearly all actives have a fitted effect of over 50% in size
# settings: RealTime-Glo luminescence; series mostly up to 76.8 µM
Records with an inconclusive call do not appear. Active and inactive are the calls of the source. The call rests on the fitted dose curve; in most records, active means well fitted cell-killing curve with a large enough effect in the repeat runs; inconclusive means weak or mixed curves, or effect the other way; inactive means flat fitted curve, though single readings scatter.
Hi there, use one of these labels in your reply, thanks! True = active, False = inactive

Use these answered entries as a reference point.
compound | class
COc1cc(NC(C)CCCN)c2ncccc2c1 (configuration not stated) | False
C[C@@H]1[C@H](O)[C@@H](C)/C=C/C=C\C=C\C=C\C=C\C=C\C=C\[C@H](O[C@@H]2O[C@H](C)[C@@H](O)[C@H](N)[C@@H]2O)C[C@@H]2O[C@](O)(C[C@@H](O)C[C@@H](O)[C@H](O)CC[C@@H](O)C[C@@H](O)CC(=O)O[C@H]1C)C[C@H](O)[C@H]2C(=O)O (stereo in doubt) | False
CCCCCCCC(=O)OCCCCCC | True

State the result this test recorded for C=CCOC(=O)COCCC(C)C .
False

State the result this test recorded for c1ccc(CCCc2ccncc2)cc1 .
False

State the result this test recorded for CCCCCCCCCCCC(=O)OCC(O)CO (configuration not stated) .
False

State the result this test recorded for COc1ccc(C)cc1 .
False

State the result this test recorded for O=NN(CCCl)C(=O)NCCCl .
False

State the result this test recorded for CCCCCC .
False

State the result this test recorded for CCOC(=O)Oc1ccc(CCNC(=O)[C@H](CCSC)NC(C)=O)cc1OC(=O)OCC .
False

State the result this test recorded for COC(=O)CC(C(C)=O)C(=O)OC (configuration not stated) .
False

State the result this test recorded for Nc1ccc(N=Nc2ccc(N)cc2)cc1 .
False
